Target: mGluR5 (Homo sapiens, UniProt P41594)
Sequence (P41594 21-1180 isoform P41594-2 limits assumed): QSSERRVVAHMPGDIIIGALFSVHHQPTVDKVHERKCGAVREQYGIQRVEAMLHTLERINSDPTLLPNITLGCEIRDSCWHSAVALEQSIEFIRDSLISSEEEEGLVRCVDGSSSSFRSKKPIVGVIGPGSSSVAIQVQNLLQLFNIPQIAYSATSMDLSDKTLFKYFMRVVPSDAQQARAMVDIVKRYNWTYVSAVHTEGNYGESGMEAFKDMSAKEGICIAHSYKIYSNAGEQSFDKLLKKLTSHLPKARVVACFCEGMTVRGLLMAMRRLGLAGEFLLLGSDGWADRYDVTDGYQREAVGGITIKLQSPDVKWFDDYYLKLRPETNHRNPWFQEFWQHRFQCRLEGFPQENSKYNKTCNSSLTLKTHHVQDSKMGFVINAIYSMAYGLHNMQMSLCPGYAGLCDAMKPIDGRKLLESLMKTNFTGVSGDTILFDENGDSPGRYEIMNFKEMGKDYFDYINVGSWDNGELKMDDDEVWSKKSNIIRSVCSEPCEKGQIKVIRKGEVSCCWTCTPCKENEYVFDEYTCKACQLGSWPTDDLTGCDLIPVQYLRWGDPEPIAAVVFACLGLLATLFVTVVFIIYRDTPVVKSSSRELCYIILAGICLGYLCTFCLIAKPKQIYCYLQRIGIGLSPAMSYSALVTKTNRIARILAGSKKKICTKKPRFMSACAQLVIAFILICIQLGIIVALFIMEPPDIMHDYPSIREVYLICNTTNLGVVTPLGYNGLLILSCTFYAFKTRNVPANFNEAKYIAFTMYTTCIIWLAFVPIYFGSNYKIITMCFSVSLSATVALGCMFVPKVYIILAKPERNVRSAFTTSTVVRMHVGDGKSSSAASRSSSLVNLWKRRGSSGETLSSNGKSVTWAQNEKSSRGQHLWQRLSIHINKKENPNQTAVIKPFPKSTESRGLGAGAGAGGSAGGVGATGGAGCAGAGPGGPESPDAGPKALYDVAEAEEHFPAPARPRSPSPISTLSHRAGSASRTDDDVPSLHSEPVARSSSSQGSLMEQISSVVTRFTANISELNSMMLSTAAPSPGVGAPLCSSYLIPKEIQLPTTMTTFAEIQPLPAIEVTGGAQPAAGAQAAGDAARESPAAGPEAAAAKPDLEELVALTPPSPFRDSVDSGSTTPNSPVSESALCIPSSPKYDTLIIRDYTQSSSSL
Assay: inhibition of the glutamate induced elevation of intracellular Ca2+ concentration
Settings: read-out: mGluR5 Activity inh. at 10 μM [%]
READOUT: inhibition at 10 µM (%)
Form entry: value (%) — number only.

COc1cc(C(=O)N2CCCCCC2)cnc1Nc1ccc(Cl)cc1 ... 97
O=C(c1cnc(Nc2ccc(Cl)cc2)c(Cl)c1)N1CCSCC1 ... 97
Cc1ccc(Nc2ncc(C(=O)N3CCCC3c3ccc(C)s3)cc2Cl)cn1 (centres unmarked) ... 96
CCC=C1CCCN(C(=O)c2cnc(Nc3ccc(C)nc3)c(Cl)c2)C1 ... 93
O=C(c1ccc(Nc2ccc(Cl)cn2)nc1)N1CCCCC1 ... 60
CCOCC1CCCCN1C(=O)c1cnc(Nc2ccc(C)nc2)c(Cl)c1 (centres unmarked) ... 97

Asked: Requested field: inhibition at 10 µM. Item: Cc1ccc(Nc2ncc(C(=O)N3CC4CCC3C4)cc2Cl)cn1 (racemic)
Given back: 96

Asked: Requested field: inhibition at 10 µM. Item: Cc1ccc(Nc2ncc(C(=O)N3CCCCC3c3ccccn3)cc2Cl)cn1 (centres unmarked)
Given back: 98

Asked: Requested field: inhibition at 10 µM. Item: CC[C@@H]1CCCCN1C(=O)c1cnc(Nc2ccc(OC)nc2)c(Cl)c1
Given back: 97

Asked: Requested field: inhibition at 10 µM. Item: O=C(c1ccc(Nc2ccc(Br)cc2)nc1)N1CCCCC1
Given back: 96

Asked: Requested field: inhibition at 10 µM. Item: CCCC1OCCCCN1C(=O)c1cnc(Nc2ccc(C)nc2)c(Cl)c1 (centres unmarked)
Given back: 91

Asked: Requested field: inhibition at 10 µM. Item: Cc1ccc(Nc2ncc(C(=O)N3CCCCC3c3ncco3)cc2Cl)cn1 (centres unmarked)
Given back: 94

Asked: Requested field: inhibition at 10 µM. Item: Cc1ccc(Nc2ncc(C(=O)N3CCCCC3c3ccc(C)o3)cc2Cl)cn1 (centres unmarked)
Given back: 90

Asked: Requested field: inhibition at 10 µM. Item: O=C(c1ccc(Nc2ccc(F)c(F)c2)nc1)N1CCCCC1
Given back: 65

* * *

Target: mGluR5 (Homo sapiens)
Experiment: inhibition of the glutamate induced elevation of intracellular Ca2+ concentration
Settings: read-out: mGluR5 Activity inh. at 10 μM [%]
Structures can show the parent of a compound that is named as a salt.
READOUT: inhibition at 10 µM (%)
Form entry: value (%) — number only.

N#Cc1ccc(Nc2ccc(C(=O)N3CCCCC3)cn2)cc1 ... 77

Asked: Requested field: inhibition at 10 µM. Item: CC1CCCN(C(=O)c2ccc(Nc3ccccc3)nc2)C1 (stereo not drawn) [Compound 1.15, hydrochloride]
Given back: 88

Asked: Requested field: inhibition at 10 µM. Item: Cc1ccc(Nc2ncc(C(=O)N3CCCC[C@@H]3C(C)C)cc2Cl)cn1
Given back: 86

Asked: Requested field: inhibition at 10 µM. Item: CCC(CC)C1CCCCN1C(=O)c1cnc(Nc2ccc(C)nc2)c(Cl)c1 (stereo not drawn)
Given back: 96

* * *

Target: mGluR5 (Homo sapiens, UniProt P41594)
Assay: inhibition of the glutamate induced elevation of intracellular Ca2+ concentration
Conditions: read-out: mGluR5 Activity inh. at 10 μM [%]
Where a name gives a salt, the structure may show the parent alone.
READOUT: inhibition at 10 µM (%)
Form entry: value (%) — number only.

Illustrative cases are given below, each with its answer.
CC1CCN(C(=O)c2ccc(Nc3ccc(Cl)cc3)nn2)CC1 ... 86
CCN(CC)C(=O)c1ccc(Nc2ccc(OC)cc2)nc1 [Compound 1.3, hydrochloride] ... 75
CCCC1OCCCN1C(=O)c1cnc(Nc2ccc(C)nc2)c(Cl)c1 (centres unmarked) ... 99
Cc1ccc(Nc2ncc(C(=O)N3CCSC3)cc2Cl)cn1 ... 97
CCN(CC)C(=O)c1ccc(Nc2ccc(Cl)cc2)nc1 [Compound 1.1, hydrochloride] ... 95

Asked: Requested field: inhibition at 10 µM. Item: CC1CCCCN1C(=O)c1ccc(Nc2ccc(Cl)cc2)nc1 (centres unmarked) [Compound 1.9, hydrochloride]
Given back: 97

Asked: Requested field: inhibition at 10 µM. Item: CCO[C@@H]1CCCN1C(=O)c1cnc(Nc2ccc(C)nc2)c(Cl)c1
Given back: 92

Asked: Requested field: inhibition at 10 µM. Item: CC1CCCN(C(=O)c2cnc(Nc3ccc(Cl)cc3)nc2)C1 (racemic)
Given back: 96
